Assay: Alkylating activity of the compound in aqueous acetone solution assessed as half life of compound-NBP adduct formation after 30 mins by UV-Vis spectrophotometric analysis
Assay type: physicochemical
Settings: buffer, 0.5 h
Entries and their t1/2 values follow.

INSERT INTO assay_data (smiles_representation, endpoint_label, result) VALUES
  ('O=C(CN(CCCl)CCCl)Nc1ccc([N+](=O)[O-])cc1C(=O)c1ccccc1', 't1/2', '11.8 min'),
  ('O=C(CN(CCCl)CCCl)Nc1ccc(Cl)cc1C(=O)c1ccc(Cl)cc1', 't1/2', '8.9 min');

// lookup t1/2 for "O=C(CN(CCCl)CCCl)Nc1ccc([N+](=O)[O-])cc1C(=O)c1ccc(Cl)cc1" 8.4 min

// lookup t1/2 for "O=C(CN(CCCl)CCCl)Nc1ccc(Cl)cc1C(=O)c1ccccc1Cl" 10.3 min

// lookup t1/2 for "O=C(CN(CCCl)CCCl)Nc1ccc([N+](=O)[O-])cc1C(=O)c1ccccc1Cl" 9.5 min

// lookup t1/2 for "O=C(CN(CCCl)CCCl)Nc1ccc(Cl)cc1C(=O)c1ccccc1" 13.3 min
